All figures here come from patent US20090291081A1.

# Target Or System: T1, human IL-1β (human, UniProt P01584 117-269)
# T1 construct: also called IL-1beta; hIL-1β
# Assay Protocol: Table 60 heading; dAbs from selection on antigen
Readout: binding result

These recorded examples may help you get a feel for the data.
ABT2-108-521 (other, VH dAb) VH: EVQLLESGGGLVQPGGSLRLSCAASGFTFAEYTMMWVRQAPGKGLEWVSRIGQDGKNTYYADSVKGRFTISRDNSKNTLYLQMNSLRAEDTAVYYCAKYTGRILGHHLFDYWGQGTLVTVSS    binds
ABT2-108-504 (other, VH dAb) VH: EVQLLESGGGLVQPGGSLRLSCAASGFTFADEGMMWVRQAPGKGLEWVSRIGQDGKNTYYADSVKGRFTISRDNSKNTLYLQMNSLRAEDTAVYYCAKYTGRVGVHHLFDYWGQGTLVTVSS    binds
ABT2-65-B2 (other, VH dAb) VH: EVQLLESGGGLVQPGGSLRLSCVASGFTFEDYQMGWVRQAPGKGLEWVSSISAMGRRTYYADSVKGRFTISRDDSKNTLYLQMNSLRAEDTAVYYCAQNLVRLGRSRWMFDYWGQGTLVTVSS    binds
ABT2-65-166SK (other, VH dAb) VH: EVQLLESGGGLVQPGGSLRLSCAASGFTFSDYQMGWVRQAPGKGLEWVSSISAMGGRTYYADSVKGRFTISRDNSKNTLYLQMNSLRAEDTAVYYCAKNLVRLGRSRWMFDYWGQGTLVTVSS    binds
ABT2-108-604 (other, VH dAb) VH: EVQLLESGGGLVQPGGSLRLSCAASGFTFAEYTMMWVRQAPGKGLEWVSRVTYDGKNTYYADSVKGRFTISRDNSKNTLYLQMNSLRAEDTAVYYCAKYTGRVGVHHLFDYWGQGTLVTVSS    binds
ABT2-65-166S (other, VH dAb) VH: EVQLLESGGGLVQPGGSLRLSCAASGFTFSDYQMGWVRQAPGKGLEWVSSISAMGGRTYYADSVKGRFTISRDNSKNTLYLQMNSLRAEDTAVYYCAQNLVRLGRSRWMFDYWGQGTLVTVSS    binds

-- ask Retrieve binding result measured for ABT2-108-605 (other, VH dAb) VH: EVQLLESGGGLVQPGGSLRLSCAASGFTFAEYTMMWVRQAPGKGLEWVSRIGQDGKNTYYREDVKGRFTISRDNSKNTLYLQMNSLRAEDTAVYYCAKYTGRVGVHHLFDYWGQGTLVTVSS and print it.
-- reply binds

-- ask Retrieve binding result measured for ABT2-65-201 (other, VH dAb) VH: EVQLLESGGGLVQPGGSLRLSCVASGFTFEDYQMGWVRQAPGKGLEWVSSISAMGRRTYYADSVKGRFTISRDNSKNTLYLQMNSLRAEDTAVYYCAQNLVRLGRSRWMFDYWGQGTLVTVSS and print it.
-- reply binds

-- ask Retrieve binding result measured for ABT2-108-509 (other, VH dAb) VH: EVQLLESGGGLVQPGGSLRLSCAASGFTFAEYTMMWVRQAPGKGLEWVSRITYSGKNTYYADSVKGRFTISRDNSKNTLYLQMNSLRAEDTAVYYCAKYTGRVGVHHLFDYWGQGTLVTVSS and print it.
-- reply binds

-- ask Retrieve binding result measured for ABT2-108-620x (other, VH dAb) VH: EVQLLESGGGLVQPGGSLRLSCAASGFTFAEESWMWVRQAPGKGLEWVSRIGQDGKNTYYREDVKGRFTISRDNSKNTLYLQMNSLRAEDTAVYYCAKYTGRIMGHHLFDYWGQGTLVTVSS and print it.
-- reply binds

-- ask Retrieve binding result measured for ABT2-108-603 (other, VH dAb) VH: EVQLLESGGGLVQPGGSLRLSCAASGFTFAEYTMMWVRQAPGKGLEWVSRITDAGKNTYYADSVKGRFTISRDNSKNTLYLQMNSLRAEDTAVYYCAKYTGRVGVHHLFDYWGQGTLVTVSS and print it.
-- reply binds

-- ask Retrieve binding result measured for ABT2-108-511 (other, VH dAb) VH: EVQLLESGGGLVQPGGSLRLSCAASGFTFAEYTMMWVRQAPGKGLEWVSRIGQDGKNTVIRDSVKGRFTISRDNSKNTLYLQMNSLRAEDTAVYYCAKYTGRVGVHHLFDYWGQGTLVTVSS and print it.
-- reply binds

-- ask Retrieve binding result measured for ABT2-108-527 (other, VH dAb) VH: EVQLLESGGGLVQPGGSLRLSCAASGFTFAEYTMMWVRQAPGKGLEWVSRIGQDGKNTYYADSVKGRFTISRDNSKNTLYLQMNSLRAEDTAVYYCAKYTGRVFKHHLFDYWGQGTLVTVSS and print it.
-- reply binds
